Target protein (sequence): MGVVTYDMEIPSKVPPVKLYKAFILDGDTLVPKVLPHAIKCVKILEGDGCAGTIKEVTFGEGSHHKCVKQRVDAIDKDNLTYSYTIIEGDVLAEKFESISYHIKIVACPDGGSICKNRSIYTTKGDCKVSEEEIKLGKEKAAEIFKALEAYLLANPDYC
parameter.measured: Kd (mM)
Dear colleague, please return just the value in mM, with no unit written.

The measured Kd associated with Oc1cccc(O)c1O [pyrogallol] reads 30

###

target: Act d 8 (Actinidia deliciosa); test: 1H-15N HSQC NMR titration (chemical shift perturbations)
Sequence (D1YSM5 1-157): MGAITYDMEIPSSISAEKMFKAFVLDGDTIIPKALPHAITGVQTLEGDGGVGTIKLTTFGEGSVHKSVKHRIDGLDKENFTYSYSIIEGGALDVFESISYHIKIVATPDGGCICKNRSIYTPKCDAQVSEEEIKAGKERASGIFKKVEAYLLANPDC
parameter.measured: Kd (mM)
Dear colleague, please return just the value in mM, with no unit written.

The measured Kd associated with Oc1cccc(O)c1O [pyrogallol] reads 5
